The measurements presented in this section are drawn from ChEMBL document CHEMBL3045770.

tested on: SR; test: Cytotoxicity against Homo sapiens (human) SR assessed as cell growth at 10 uM after 48 hr by SRB assay relative to control; format: functional; settings: read-out: Activity
assay_endpoint: growth at 10 µM (%)

- compound: "CSc1nnc(-c2sc3nnc(-c4ccccc4)c(-c4ccccc4)c3c2O)o1"
  measured_number: 62.5
- compound: "CC1=NN(C(=O)c2sc3nnc(-c4ccccc4)c(-c4ccccc4)c3c2O)C(=O)C1"
  measured_number: 68.6
- compound: "CC(=O)Oc1c(C2=NN(C(C)=O)C(c3ccc(F)cc3)O2)sc2nnc(-c3ccccc3)c(-c3ccccc3)c12 (stereo not given)"
  measured_number: 79.3
- compound: "Oc1c(-c2nnc(-c3ccccc3)o2)sc2nnc(-c3ccccc3)c(-c3ccccc3)c12"
  measured_number: 46.8
- compound: "CCOC(=O)c1c(Nc2ccc(S(N)(=O)=O)cc2)nnc(-c2ccccc2)c1-c1ccccc1"
  measured_number: 76.1
